Molecular target: Butyrylcholinesterase (Rattus norvegicus)
Sequence (Q9JKC1 whole entry): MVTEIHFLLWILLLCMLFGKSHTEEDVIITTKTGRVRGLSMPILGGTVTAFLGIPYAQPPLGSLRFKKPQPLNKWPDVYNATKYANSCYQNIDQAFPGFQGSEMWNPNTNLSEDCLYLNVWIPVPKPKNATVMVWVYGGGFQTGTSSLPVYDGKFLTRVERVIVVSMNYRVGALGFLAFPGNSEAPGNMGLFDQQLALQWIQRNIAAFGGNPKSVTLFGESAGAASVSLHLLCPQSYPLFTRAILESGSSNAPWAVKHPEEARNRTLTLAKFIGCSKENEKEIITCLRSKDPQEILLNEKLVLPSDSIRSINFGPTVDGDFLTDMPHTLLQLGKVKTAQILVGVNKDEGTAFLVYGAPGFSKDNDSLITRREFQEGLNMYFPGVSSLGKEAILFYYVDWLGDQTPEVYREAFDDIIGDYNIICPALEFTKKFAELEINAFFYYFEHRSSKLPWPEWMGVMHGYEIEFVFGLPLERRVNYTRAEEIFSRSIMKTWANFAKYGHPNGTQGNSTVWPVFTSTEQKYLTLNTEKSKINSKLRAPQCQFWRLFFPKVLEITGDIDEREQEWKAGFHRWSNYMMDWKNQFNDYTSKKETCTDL
Experiment: Inhibition of BuChE activity in rat plasma using […] as substrate by Ellman's method
observed_property: IC50 (µM)

• COc1ccc([C@H]2[C@H]3C(=O)N(c4ccc(C(=O)O)cc4)C(=O)[C@H]3ON2c2ccc(C)cc2)cc1 (relative stereo) = 15.3

====

Target: Acetylcholinesterase (Rattus norvegicus, UniProt P37136)
Sequence (P37136 whole entry): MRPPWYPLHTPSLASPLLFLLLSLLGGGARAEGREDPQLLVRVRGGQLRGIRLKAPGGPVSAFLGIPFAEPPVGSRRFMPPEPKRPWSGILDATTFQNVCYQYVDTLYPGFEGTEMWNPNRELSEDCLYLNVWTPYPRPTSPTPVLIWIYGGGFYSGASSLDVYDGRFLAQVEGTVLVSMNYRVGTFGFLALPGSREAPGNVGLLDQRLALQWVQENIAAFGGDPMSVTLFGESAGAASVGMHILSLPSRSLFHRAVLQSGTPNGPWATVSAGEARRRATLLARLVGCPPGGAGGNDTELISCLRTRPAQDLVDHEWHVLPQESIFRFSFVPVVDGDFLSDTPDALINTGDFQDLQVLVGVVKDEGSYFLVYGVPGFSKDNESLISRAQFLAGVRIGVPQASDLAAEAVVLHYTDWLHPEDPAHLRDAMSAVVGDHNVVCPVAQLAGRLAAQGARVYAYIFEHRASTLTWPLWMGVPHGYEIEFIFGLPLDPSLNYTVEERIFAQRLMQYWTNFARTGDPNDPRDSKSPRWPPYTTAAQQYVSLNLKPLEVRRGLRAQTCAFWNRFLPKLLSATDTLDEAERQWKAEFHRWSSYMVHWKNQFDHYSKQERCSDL
pIC50: −log10 of the molar value.
observed_property: pIC50

• O=C(O)c1ccc(N2C(=O)[C@H]3[C@H](ON(c4ccccc4)[C@H]3c3ccc([N+](=O)[O-])cc3)C2=O)cc1 (relative stereo) = 7.59
• COc1ccc([C@H]2[C@@H]3C(=O)N(c4ccc(C(=O)O)cc4)C(=O)[C@@H]3ON2c2ccccc2)cc1 = 7.72
• COc1ccccc1[C@H]1[C@@H]2C(=O)N(c3ccc(C(=O)O)cc3)C(=O)[C@@H]2ON1c1ccc(C)cc1 (relative stereo) = 7.69
• COc1cccc([C@H]2[C@@H]3C(=O)N(c4ccc(C(=O)O)cc4)C(=O)[C@@H]3ON2c2ccc(C)cc2)c1 (relative stereo) = 7.70
• O=C(O)c1ccc(N2C(=O)[C@H]3[C@H](ON(c4ccccc4)[C@H]3c3ccccc3)C2=O)cc1 (relative stereo) = 7.62
• O=C(O)c1ccc(N2C(=O)[C@H]3[C@H](ON(c4ccccc4)[C@H]3c3ccc(Cl)cc3)C2=O)cc1 (relative stereo) = 7.71
• O=C(O)c1ccc(N2C(=O)[C@H]3[C@H](ON(c4ccccc4)[C@H]3c3ccccc3[N+](=O)[O-])C2=O)cc1 (relative stereo) = 7.58
• Cc1ccc(N2O[C@H]3C(=O)N(c4ccc(C(=O)O)cc4)C(=O)[C@H]3[C@@H]2c2ccccc2Cl)cc1 (relative stereo) = 7.66
• Cc1ccc(N2O[C@H]3C(=O)N(c4ccc(C(=O)O)cc4)C(=O)[C@H]3[C@@H]2c2cccc(Cl)c2)cc1 (relative stereo) = 7.62
• Cc1ccc(N2O[C@H]3C(=O)N(c4ccc(C(=O)O)cc4)C(=O)[C@H]3[C@@H]2c2ccc(O)cc2)cc1 (relative stereo) = 7.65
• O=C(O)c1ccc(N2C(=O)[C@@H]3[C@@H](ON(c4ccccc4)[C@H]3c3cccc(Cl)c3)C2=O)cc1 (relative stereo) = 7.66
• COc1cccc([C@H]2[C@H]3C(=O)N(c4ccc(C(=O)O)cc4)C(=O)[C@H]3ON2c2ccccc2)c1 (relative stereo) = 7.72
• Cc1ccc(N2O[C@@H]3C(=O)N(c4ccc(C(=O)O)cc4)C(=O)[C@@H]3[C@@H]2c2ccc(Cl)cc2)cc1 (relative stereo) = 7.72
